- Tested on: DU145 androgen-independent prostate cancer cells
- experimentalProtocol: CellTiter-Glo Luminescent Cell Viability Assay, DU145 cells
- Type: cell-based
- studyConditions: Homo sapiens, DU-145; compound at 2 μM; 48 hours treatment; % of survival normalized to DMSO control
Structures can show the parent of a compound that is named as a salt.
resultType: viability at 2 µM (%)
Answers are plain numbers, in %.

Field: example entries. Status: answers known.
| molecule | viability at 2 µM [%] |
| --- | --- |
| Oc1ccc(CCl)c2cccnc12 [SD70-15, hydrochloride] | 100 |
| CCC(=O)NC(c1ccco1)c1ccc2cccnc2c1O (stereo not drawn) [SD70-11] | 120 |
| CC(=O)NC(c1ccco1)c1cc(Cl)c2cccnc2c1O (stereo not drawn) [SD70-3] | 110 |

Would you be so kind as to report viability at 2 µM for each listed record?
1. CCCC(=O)NC(c1ccco1)c1cc(Cl)c2cccnc2c1O (stereo not drawn) [SD70-4]
2. Oc1ccc(COCc2ccccc2)c2cccnc12 [SD70-16, 5-(benzyloxymethyl)quinolin-8-ol]
3. Oc1c(CNCCN2CCOCC2)ccc2cccnc12 [SD70-19]

Result:
29
19
94

Would you be so kind as to report viability at 2 µM for each listed record?
1. CCC(=O)NC(c1ccco1)c1cc([N+](=O)[O-])c2cccnc2c1O (stereo not drawn) [SD70-10]
2. CC(C)C(=O)NC(c1ccco1)c1ccc2cccnc2c1O (stereo not drawn) [SD70]
3. CCC(=O)NC(c1ccccc1OC)c1cc(Cl)c2cccnc2c1O (stereo not drawn) [SD70-8]
4. Oc1ccc(CNCCN2CCOCC2)c2cccnc12 [SD70-17]
5. COc1ccc(C(=O)NC(c2ccco2)c2cc(Cl)c3cccnc3c2O)cc1 (stereo not drawn) [SD70-6]
6. O=C(COc1ccccc1)NC(c1ccco1)c1cc(Cl)c2cccnc2c1O (stereo not drawn) [SD70-7]
7. CC(C)C(=O)NC(c1ccco1)c1cc(Cl)c2cccnc2c1O (stereo not drawn) [SD70-2]
8. O=C(NC(c1ccco1)c1cc(Cl)c2cccnc2c1O)c1cccnc1 (stereo not drawn) [SD70-5]

Result:
1. 100
2. 26
3. 42
4. 100
5. 50
6. 21
7. 32
8. 31

DU145 androgen-independent prostate cancer cells assay, molecule Oc1c(CN2CCN(c3ccccn3)CC2)ccc2cccnc12 [SD70-18] , recorded viability at 2 µM = 110
